# System: rice (Oryza sativa L.)
# Test: Test Example 2, soil application on the day after sowing
# Type: in vivo
# Condition Label: 21st to 22nd day after application, visual, read-out: Growth inhibition rate (%) Rice
Measured Endpoint: inhibition at 250 g/ha (%)
Express the result in % but write the number alone.

// lookup inhibition at 250 g/ha | system=rice (Oryza sativa L.) | key= COC(=O)OC(C)Oc1c(C(=O)c2ccc(S(C)(=O)=O)c(C(=O)OC)c2C)cnn1C (stereo not shown)
100

GET /values?readout=inhibition at 250 g/ha&system=rice (Oryza sativa L.)&item= CCn1ncc(C(=O)c2ccc(S(C)(=O)=O)c(OCCOC)c2C)c1OC(C)OC(=O)OC (stereo not shown)
98

Lookup: inhibition at 250 g/ha / rice (Oryza sativa L.) / CCOCc1c(S(C)(=O)=O)ccc(C(=O)c2cnn(C)c2OC(C)OC(=O)OCC)c1C (stereo not shown)
60

Provide value of inhibition at 250 g/ha for this record tested with rice (Oryza sativa L.): CCCn1ncc(C(=O)c2ccc(S(C)(=O)=O)c(OCCOC)c2C)c1O
98

// data source = patent US8466089B2
